The measured values listed here are drawn from patent US20250320281A1.

# target_desc: HIV-1 Env of isolate 93WR029 (pseudovirus) (HIV-1)
# test_protocol: cell-based or functional assay
IC50 (µg/mL), pseudovirus neutralization overview
observed_property: IC50 (µg/mL), pseudovirus neutralization

[[record]]
binder = "PGT-126 (5141_B17) (antibody, V domains shown) VH: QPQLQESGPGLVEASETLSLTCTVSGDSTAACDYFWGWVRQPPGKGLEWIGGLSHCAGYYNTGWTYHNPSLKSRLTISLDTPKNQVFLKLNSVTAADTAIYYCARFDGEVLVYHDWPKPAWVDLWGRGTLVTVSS VL: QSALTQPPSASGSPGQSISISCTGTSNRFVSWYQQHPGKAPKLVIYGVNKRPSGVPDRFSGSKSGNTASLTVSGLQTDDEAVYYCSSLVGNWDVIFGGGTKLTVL"
result = "> 50 µg/mL"

[[record]]
binder = "PGT-123 (4858_P08) (antibody, V domains shown) VH: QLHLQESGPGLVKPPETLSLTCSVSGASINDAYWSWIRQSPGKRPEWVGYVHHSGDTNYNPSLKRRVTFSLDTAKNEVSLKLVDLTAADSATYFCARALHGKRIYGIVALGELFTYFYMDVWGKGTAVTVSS VL: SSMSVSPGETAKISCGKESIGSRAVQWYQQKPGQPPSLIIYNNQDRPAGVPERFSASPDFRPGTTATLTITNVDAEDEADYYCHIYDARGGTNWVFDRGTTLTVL"
result = "> 50 µg/mL"

[[record]]
binder = "PGT-127 (5145_B14) (antibody, V domains shown) VH: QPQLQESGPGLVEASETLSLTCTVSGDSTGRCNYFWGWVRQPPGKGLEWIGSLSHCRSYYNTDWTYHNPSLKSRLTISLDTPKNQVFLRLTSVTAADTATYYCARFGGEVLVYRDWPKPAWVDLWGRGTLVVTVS VL: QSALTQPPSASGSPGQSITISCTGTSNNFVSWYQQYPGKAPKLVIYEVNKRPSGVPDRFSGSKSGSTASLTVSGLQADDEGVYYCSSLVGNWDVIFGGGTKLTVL"
result = "> 50 µg/mL"

[[record]]
binder = "PGT-125 (5123_A06) (antibody, V domains shown) VH: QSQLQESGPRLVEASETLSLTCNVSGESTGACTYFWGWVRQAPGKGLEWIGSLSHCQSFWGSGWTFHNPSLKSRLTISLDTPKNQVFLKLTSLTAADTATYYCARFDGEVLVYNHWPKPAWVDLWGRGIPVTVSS VL: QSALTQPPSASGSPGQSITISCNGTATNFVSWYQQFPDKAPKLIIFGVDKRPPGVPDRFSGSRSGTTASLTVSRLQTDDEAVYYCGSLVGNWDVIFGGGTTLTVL"
result = "> 50 µg/mL"

